Provenance of the data: ChEMBL document CHEMBL1201862

- Test system: SK-OV-3
- assay.summary: NCI tumour cell line growth inhibition, 48 h
Activity calls are given as the source filed them. Cut-off read from the data, not from the text of the source: active = GI50 up to about 1.1 µM and inactive = higher.
Assign GI50 to each entry below.

Some compounds with recorded GI50:
| compound | GI50 |
| --- | --- |
| O=S(=O)(O)c1ccc2c(/N=N/c3cccc4ccccc34)c(O)ccc2c1 | > 100 µM (inactive) |
| CCC(C)C(=O)OCC(=O)c1ccc(-c2ccccc2)cc1 (stereo not given) | > 100 µM (inactive) |
| N#CCN(Cc1ccccc1)[C@H]1CCC[C@]1(O)/C=C/c1ccc2c(c1)OCO2 | 46.6 µM (inactive) |
| CC(C)c1cccc(C(C)C)c1NC(=O)/C(Cc1nc2ccc(Cl)cc2nc1O)=N\NC(=O)C[N+](C)(C)C | > 100 µM (inactive) |
| Cc1c(S(=O)(=O)O)ccc(/N=N/c2c(O)c(C(=O)O)cc3ccccc23)c1Cl | > 100 µM (inactive) |
| O=C1C(Cl)N(c2ccccc2[N+](=O)[O-])C1c1c[nH]c2ccccc12 (stereo not given) | > 100 µM (inactive) |
| CC(=O)c1c2c(cc3c1CC1(Cc4cc5c(cc4C1)C(=O)CCC5)C3)CCCC2 (stereo not given) | > 54.8 µM (inactive) |
| N#Cc1c(N)nc2[nH]nc(N)c2c1-c1ccc(Cl)cc1 | 2.56 µM (inactive) |

List reported GI50 for each of these compounds:
1. COC(=O)[C@@]12C=CC(=O)[C@H]3C[C@@H](C(C(C)C)C1)[C@]32OC (stereo not given in full)
2. Clc1ccc(Nc2nc(Cl)c3nc[nH]c3n2)cc1Cl

A)
1: > 100 µM (inactive); 2: 33.2 µM (inactive)

---

- System: SR
- assay.summary: NCI tumour cell line growth inhibition, 48 h
Activity calls are given as the source filed them. No stated cut-off is given here; in the data, active = GI50 up to about 1.1 µM and inactive = higher.
# output must be one of class 1 for active, class 0 for inactive

Illustrative cases are given below, each with its answer.
| compound | assayed.system | assigned.class |
| --- | --- | --- |
| Brc1cccc(/N=N/N2CCCC2)c1 | SR | class 0 |
| CC1=CC[C@H](C(C)C)C(C(O)[C@@H](C)O[Si](c2ccccc2)(c2ccccc2)C(C)(C)C)C1=O (stereo partly specified) | SR | class 0 |

Q) Please state the recorded outcome for this compound: CCCCC1Cc2ccccc2-c2n1c1ccccc1[n+]2C (stereo unspecified)
A) class 0

Q) Test call, this compound: CCC(CC)C(=O)OC[n+]1cccc(-c2c(COC(=O)NC(C)C)c(COC(=O)NC(C)C)c3n2CCC3)c1
A) class 0

Q) Could you kindly confirm the outcome this assay logged for COc1cc(Br)c(/C=N\c2cccc3ccc(OS(=O)(=O)c4cccc([N+](=O)[O-])c4)cc23)cc1OC ?
A) class 0

Q) For this compound, state the assay outcome: C=CC[C@@H]1C=C[C@@H](C(=O)OC)n2c(=O)n(-c3ccccc3)c(=O)n21
A) class 0

Q) So what was the verdict on COc1ccc2oc3cccc(NCCN(C)C)c3c(=O)c2c1 in this test?
A) class 0

Q) Each compound tested received a call. Report the one for Cc1nsc2cc(Cl)n(C)c(=O)c12 .
A) class 0

---

- System: M19-MEL
- assay.summary: NCI tumour cell line growth inhibition, 48 h
The source made the active and inactive calls. Cut-off read from the data, not from the text of the source: active = GI50 up to about 1.1 µM and inactive = higher.
Your reply should match one of these outcome classes. 1 (active), 0 (inactive)

| compound | assigned.class |
| --- | --- |
| CO/C=C(\Br)c1ccc2c(c1)OCO2 | 0 |
| CC(C)(Br)C(Br)CC/C(=C/CBr)CBr.CC(C)(Br)C(Br)CC/C(=C\CBr)CBr (stereo not given) | 0 |
| CC1=C2C3OC(=O)C(C)C3CCC2(C)C=C/C1=N\c1ccccc1 (stereo not given) | 0 |
| CCCCN(CCCC)C(=O)C(=O)CC(=O)c1ccc(Br)cc1 | 0 |
| Cc1nsc2cc(Cl)n(C)c(=O)c12 | 0 |
| O=C(NCCCl)SCCO | 0 |

Q) How was c1ccc2c(C3NCCc4nc[nH]c43)cccc2c1 (stereo not given) classified in this test?
A) 0

Q) # lookup: test call for COc1ccc(OC)c2c(C(=O)O)c(C(C)c3ccccc3)ccc12 (stereo not given)
A) 0

Q) Called result for COCCOc1cc(C)cc(/C=C(C)/C=C/C2=C(C)CCCC2(C)C)n1
A) 0

Q) What was the test verdict on Nc1ncnc(NC2C=C(CO)C(O)C2O)c1[N+](=O)[O-] (stereo not given) ?
A) 0

Q) Test call, this compound: CC(C)(C)c1cc2c3c(c1)c(=O)c1cccc4c(O)c5cccc(c2=O)c5c-3c41
A) 0

Q) Name the outcome recorded for COc1cc2c(c(OC)c1OC)-c1ccc(SC)c(=O)cc1[C@@H](NC(=O)c1ccc(Cl)cc1)CC2 in the assay.
A) 1
